Values were extracted from patent US20060160894A1.

assay.system: GST-hPPARγ2 (Homo sapiens)
Construct: the complete cDNA of the […] human PPARs were cloned into pGEX4T2; made in house; host or cells: Escherichia coli BL21 (DE3)
Sequence (P37231 whole entry): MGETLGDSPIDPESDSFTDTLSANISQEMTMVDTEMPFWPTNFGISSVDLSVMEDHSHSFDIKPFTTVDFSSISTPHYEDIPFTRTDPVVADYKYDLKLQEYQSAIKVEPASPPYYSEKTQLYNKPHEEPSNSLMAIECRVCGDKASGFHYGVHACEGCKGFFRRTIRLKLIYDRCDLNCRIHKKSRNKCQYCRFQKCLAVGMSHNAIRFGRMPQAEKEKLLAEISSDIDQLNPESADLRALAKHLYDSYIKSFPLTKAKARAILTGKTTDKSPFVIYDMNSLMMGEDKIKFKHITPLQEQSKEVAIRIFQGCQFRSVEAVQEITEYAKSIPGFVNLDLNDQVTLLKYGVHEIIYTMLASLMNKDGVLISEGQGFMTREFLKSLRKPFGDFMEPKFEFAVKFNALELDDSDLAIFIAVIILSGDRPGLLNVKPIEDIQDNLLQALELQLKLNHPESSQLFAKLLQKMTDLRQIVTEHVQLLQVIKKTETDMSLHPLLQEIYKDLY
experiment.notes: Assay of binding to the PPARγ2 ([3H]BRL-49853 displacement)
test.settings: Table 19; GST-hPPARγ2, [3H]BRL-49853 100 nM; read-out: Affinity PPARγ(1)
pKi: −log10 of the molar value.
Known pKi of a selection of molecules

Here are 2 molecules together with their reported answers.
O=C(O)CCN(Cc1ccc(OCc2ccccc2)cc1)C(=O)c1ccc(OCc2cccc(OCc3ccccc3)c2)cc1 [Example 176]; > 6.00
Cc1nc2ccccc2nc1OCCOc1ccc(C(=O)N[C@@H](Cc2ccc(OCc3ccccc3)cc2)C(=O)O)cc1 [Example 160]; < 5.52

Input: Test system GST-hPPARγ2 (Homo sapiens); read-out pKi; what value for O=C(N[C@@H](Cc1ccc(OCc2ccccc2)cc1)C(=O)O)c1cccc(OCc2cccc(OCc3ccccc3)c2)c1 [Example 145] ?
Output: 5.52 to 6.00
